This document collects Ki values reported for Mu-type opioid receptor (Homo sapiens).
Square brackets hold non-standard residues; d marks the D form. Peptide text beside a SMILES is read from it.
Kindly answer with a numeric value in µM, unit omitted.

Here is how some compounds turned out for Ki.
• O=C1N[C@H](Cc2c[nH]c3ccccc23)C(=O)N[C@@H](Cc2cccc(O)c2)C(=O)N2CCC[C@@H]2C(=O)N[C@H]1Cc1ccccc1 = 0.037
• C[C@@H]1NC(=O)[C@@H](Cc2c[nH]c3ccccc23)NC(=O)[C@H](Cc2ccccc2)NC(=O)[C@H]2CCCN2C1=O (cyclo(A[dP]F[dW])) = 0.022
• O=C1N[C@H](Cc2c[nH]c3ccccc23)C(=O)N[C@@H](Cc2ccccc2)C(=O)N2CCC[C@@H]2C(=O)N[C@H]1Cc1ccc(F)cc1 = 0.048

Let us examine a further case.
The compound identified as C[C@@H]1NC(=O)[C@H]2CCCN2C(=O)[C@H](Cc2ccccc2)NC(=O)[C@@H](Cc2c[nH]c3ccccc23)NC1=O (cyclo(A[dW]F[dP])) registered its Ki at 2.2

---

Target: Delta-type opioid receptor (Homo sapiens, UniProt P41143)
Sequence (P41143 whole entry): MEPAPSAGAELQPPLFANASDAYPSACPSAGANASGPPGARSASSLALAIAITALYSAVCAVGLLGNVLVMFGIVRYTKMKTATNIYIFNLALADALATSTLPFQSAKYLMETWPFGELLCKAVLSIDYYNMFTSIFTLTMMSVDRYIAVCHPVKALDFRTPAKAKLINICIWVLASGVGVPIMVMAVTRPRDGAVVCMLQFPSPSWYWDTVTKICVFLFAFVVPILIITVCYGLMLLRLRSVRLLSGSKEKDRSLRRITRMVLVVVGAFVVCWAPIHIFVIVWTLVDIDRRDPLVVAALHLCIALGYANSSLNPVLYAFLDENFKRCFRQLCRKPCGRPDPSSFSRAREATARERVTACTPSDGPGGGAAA
Experiment: Displacement of [3H]diprenorphine from human cloned delta receptor by cell based assay
# Ki per entry

Here is how some molecules turned out for Ki.
* CC(=O)N1CCC[C@@H]1C(=O)N[C@@H](Cc1ccccc1)C(=O)N[C@H](Cc1c[nH]c2ccccc12)C(=O)N[C@@H](Cc1ccccc1)C(N)=O | > 1000 nM
* O=C1N[C@H](Cc2c[nH]c3ccccc23)C(=O)N[C@@H](Cc2ccccc2)C(=O)N2CCC[C@@H]2C(=O)N[C@H]1Cc1ccc(F)cc1 | > 1000 nM

Let us examine a further case.
Delta-type opioid receptor (Homo sapiens, UniProt P41143) assay, molecule "O=C1N[C@H](Cc2c[nH]c3ccccc23)C(=O)N[C@@H](Cc2cccc(O)c2)C(=O)N2CCC[C@@H]2C(=O)N[C@H]1Cc1ccccc1" , recorded Ki = 670 nM

---

Molecular target: Delta-type opioid receptor (Homo sapiens, UniProt P41143)
Experiment: Displacement of [3H]diprenorphine from human cloned delta receptor by cell based assay
Square brackets hold non-standard residues; d marks the D form. Peptide text beside a SMILES is read from it.
# Ki per entry

Here is how some molecules turned out for Ki.
• C[C@@H]1NC(=O)[C@@H](Cc2c[nH]c3ccccc23)NC(=O)[C@H](Cc2ccccc2)NC(=O)[C@H]2CCCN2C1=O (cyclo(A[dP]F[dW])) = > 1000 nM
• CC(=O)N[C@@H](Cc1ccccc1)C(=O)N[C@H](Cc1c[nH]c2ccccc12)C(=O)N[C@@H](Cc1ccccc1)C(=O)N1CCC[C@@H]1C(N)=O = > 1000 nM
• CC(=O)N[C@@H](Cc1ccccc1)C(=O)N[C@@H](Cc1c[nH]c2ccccc12)C(=O)N[C@@H](Cc1ccccc1)C(=O)N1CCC[C@@H]1C(N)=O = > 1000 nM
• COc1ccc(C[C@@H]2NC(=O)[C@H]3CCCN3C(=O)[C@H](Cc3ccccc3)NC(=O)[C@@H](Cc3c[nH]c4ccccc34)NC2=O)cc1 = > 1000 nM
• O=C1N[C@H](Cc2c[nH]c3ccccc23)C(=O)N[C@@H](Cc2ccc(F)cc2)C(=O)N2CCC[C@@H]2C(=O)N[C@H]1Cc1ccccc1 = > 1000 nM

Let us examine a further case.
The molecule identified as "CC(=O)N[C@@H](Cc1ccccc1)C(=O)N1CCC[C@@H]1C(=O)N[C@@H](Cc1ccccc1)C(=O)N[C@H](Cc1c[nH]c2ccccc12)C(N)=O" registered its Ki at > 1000 nM
